Examples of molecules with documented growth follow.
# Test system: DU-145 prostate
# Measurement notes: NCI-60 one-dose screen, 48 h (100 = growth as untreated, 0 = no growth, -100 = all killed)
# Experimental conditions: 10 µM unless noted
# Procedure: Cells are grown in 96 well plates and exposed to the test compound for 48 hours. Compounds are tested at a single concentration, which is 10^-5 M for most compounds. The reported endpoint is percent growth (GI% or GIPRCNT), where numbers from 0 - 100% represent growth inhibition, and numbers from -100% - 0 represent cell death. For example, a value of 40 represents 60% growth inhibition. A value of 0 means no net growth occurred over the course of the experiment. […]
Compounds without any hit were thinned out: in the full panel of roughly 83,000, 20% have a hit.
Kindly provide the numeric value in % only, without the unit symbol.

Here are 4 molecules together with their reported answers.
1) CCC1([N+](=O)[O-])COP(=O)(NCc2cccnc2)OC1 (stereo not given)	103
2) COc1ccc(C2=NN(c3ccccc3)C(c3sc(N(CCCl)CCCl)nc3Cl)C2)cc1 (stereo not given)	106
3) Cc1cc(NC(=O)/C=C/c2ccc([N+](=O)[O-])cc2)ccc1S(=O)(=O)F	103
4) Cc1ccc2oc(=O)c3c(c2c1)OC(N)=C(C#N)C3c1ccco1 (stereo not given)	103

Now examine the next entry.
Query string: Tell me the measured growth of CN(C)P1(N(C)C)=NP(N(C)C)(N(C)C)=NP(N(C)C)(N(C)C)=N1 , please.
Result string: 110
